Source listed as patent US9034865B2.

# SYSTEM: human recombinant serotonin (5-Hydroxytryptamine) 5-HT5A receptor (Homo sapiens, UniProt P47898)
# Construct: expressed in transfected cells; host or cells: CHO-K1
# Sequence (P47898 whole entry): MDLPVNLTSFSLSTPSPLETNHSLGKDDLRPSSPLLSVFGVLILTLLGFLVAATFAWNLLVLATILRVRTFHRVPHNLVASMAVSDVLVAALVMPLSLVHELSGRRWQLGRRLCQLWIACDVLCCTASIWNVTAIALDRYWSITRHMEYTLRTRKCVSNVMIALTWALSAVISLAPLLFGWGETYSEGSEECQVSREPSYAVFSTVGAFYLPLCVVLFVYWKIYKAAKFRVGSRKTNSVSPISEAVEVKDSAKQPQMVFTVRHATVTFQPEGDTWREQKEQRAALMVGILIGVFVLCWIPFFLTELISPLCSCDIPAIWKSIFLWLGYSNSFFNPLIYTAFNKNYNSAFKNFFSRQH
# MEASUREMENT PROTOCOL: Serotonin 5-HT5A radioligand binding ([3H]LSD)
# EXPERIMENTAL PARAMETERS: compound at 0.1 μM; read-out: Percentage inhibition of ligand binding, Serotonin (0.1 μM) 5-HT5A
Quick reference for inhibition at 0.1 µM among some compounds
State just the number; it will be interpreted in %.

The following compounds have reported results that may help.
[[record]]
compound = "Cc1cc(C#Cc2cccs2)c2[nH]c3c(c2c1)CN(C)CC3 [Compound 8]"
reported_endpoint = "inhibition at 0.1 µM"
meas_value = -14

[[record]]
compound = "Cc1ccc(C#Cc2cc(Cl)cc3c4c(n(C)c23)CCN(C)C4)cn1 [Compound 18]"
reported_endpoint = "inhibition at 0.1 µM"
meas_value = 17


Please turn your attention to the following entry.
Reported inhibition at 0.1 µM for Cc1cc(C#Cc2nccs2)c2[nH]c3c(c2c1)CN(C)CC3 [Compound 16] was -2

---

# SYSTEM: human recombinant adrenergic α2C receptor (Homo sapiens)
# Construct: expressed in transfected cells; host or cells: insect Sf9 cells
# Sequence (P18825 1-462): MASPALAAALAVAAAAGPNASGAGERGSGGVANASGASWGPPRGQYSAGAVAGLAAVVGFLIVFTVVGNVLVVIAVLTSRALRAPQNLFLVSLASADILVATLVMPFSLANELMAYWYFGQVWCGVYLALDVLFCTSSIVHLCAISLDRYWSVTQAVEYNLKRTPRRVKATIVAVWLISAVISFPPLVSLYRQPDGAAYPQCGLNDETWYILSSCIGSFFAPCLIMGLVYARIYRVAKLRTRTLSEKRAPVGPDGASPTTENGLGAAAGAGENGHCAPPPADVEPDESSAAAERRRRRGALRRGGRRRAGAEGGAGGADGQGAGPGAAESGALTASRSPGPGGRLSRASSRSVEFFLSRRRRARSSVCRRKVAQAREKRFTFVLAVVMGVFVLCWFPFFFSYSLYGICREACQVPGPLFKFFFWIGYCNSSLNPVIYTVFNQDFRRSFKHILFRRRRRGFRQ
# MEASUREMENT PROTOCOL: Adrenergic α2C radioligand binding ([3H]MK-912)
# EXPERIMENTAL PARAMETERS: compound at 0.1 μM; read-out: Percentage inhibition of ligand binding, Adrenergic (0.1 μM) α2C
Quick reference for inhibition at 0.1 µM among some molecules
State just the number; it will be interpreted in %.

The following molecules have reported results that may help.
[[record]]
molecule = "Cc1cc(CCc2ccc(C)nc2)c2c(c1)c1c(n2C)CCN(C)C1 [Compound 13]"
meas_value = 2

[[record]]
molecule = "Cc1ccc(C#Cc2cc(Cl)cc3c4c(n(C)c23)CCN(C)C4)cn1 [Compound 18]"
meas_value = 0

[[record]]
molecule = "Cc1cc(C#Cc2cccs2)c2[nH]c3c(c2c1)CN(C)CC3 [Compound 8]"
meas_value = 7

[[record]]
molecule = "Cc1cc(C#Cc2ccncc2)c2c(c1)c1c(n2C)CCN(C)C1 [Compound 17]"
meas_value = 3

[[record]]
molecule = "Cc1cc(-c2ccc(F)cc2)c2c(c1)c1c(n2C)CCN(C)C1 [Compound 7]"
meas_value = 8

[[record]]
molecule = "C/C(=C\\c1cc(C)cc2c3c(n(C)c12)CCN(C)C3)c1ccncc1 [Compound 11]"
meas_value = 12

[[record]]
molecule = "Cc1cc(C#Cc2nccs2)c2[nH]c3c(c2c1)CN(C)CC3 [Compound 16]"
meas_value = 5

[[record]]
molecule = "Cc1cc(C#Cc2ccc(C)nc2)c2c(c1)c1c(n2C)CCN(C)C1 [Compound 12]"
meas_value = 3


Reported inhibition at 0.1 µM for Cc1cc(/C=C/c2ccc(C)nc2)c2c(c1)c1c(n2C)CCN(C)C1 [Compound 14] was 1

Reported inhibition at 0.1 µM for C#Cc1cc(C)cc2c3c(n(C)c12)CCN(C)C3 [Compound 10] was 36

Reported inhibition at 0.1 µM for C/C(=C\c1cc(C)cc2c3c(n(C)c12)CCN(C)C3)c1ccc(C)nc1 [Compound 15] was -14

Reported inhibition at 0.1 µM for Cc1cc(-c2ccncc2)c2c(c1)c1c(n2C)CCN(C)C1 [Compound 9] was 1

---

# SYSTEM: human recombinant serotonin (5-Hydroxytryptamine) 5-HT2A receptor (Homo sapiens, UniProt P28223)
# Construct: expressed in transfected cells; host or cells: CHO-K1
# Sequence (P28223 whole entry): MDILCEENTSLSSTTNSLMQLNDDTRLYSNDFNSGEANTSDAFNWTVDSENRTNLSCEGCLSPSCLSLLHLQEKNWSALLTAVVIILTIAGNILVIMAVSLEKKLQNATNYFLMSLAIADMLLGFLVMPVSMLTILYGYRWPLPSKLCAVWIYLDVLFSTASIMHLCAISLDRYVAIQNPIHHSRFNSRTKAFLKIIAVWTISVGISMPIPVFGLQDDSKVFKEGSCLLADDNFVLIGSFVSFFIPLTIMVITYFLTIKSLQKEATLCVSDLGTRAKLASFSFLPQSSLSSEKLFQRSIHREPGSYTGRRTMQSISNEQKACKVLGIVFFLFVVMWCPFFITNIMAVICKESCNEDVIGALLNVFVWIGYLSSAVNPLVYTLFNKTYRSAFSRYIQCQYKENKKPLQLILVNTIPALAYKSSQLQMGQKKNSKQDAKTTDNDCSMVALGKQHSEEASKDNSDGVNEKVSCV
# MEASUREMENT PROTOCOL: Serotonin 5-HT2A radioligand binding ([3H]Ketanserin)
# EXPERIMENTAL PARAMETERS: compound at 0.1 μM; read-out: Percentage inhibition of ligand binding, Serotonin (0.1 μM) 5-HT2A
Cut-off 6% on inhibition at 0.1 µM, inclusive. At or above means true; below means false.

Known results for compounds:
[[record]]
compound = "Cc1cc(C#Cc2ccc(C)nc2)c2[nH]c3c(c2c1)CN(C)CC3 [Compound 6]"
label = "true"

[[record]]
compound = "Cc1cc(CCc2ccc(C)nc2)c2c(c1)c1c(n2C)CCN(C)C1 [Compound 13]"
label = "true"

[[record]]
compound = "CN1CCc2[nH]c3c(N(C)Cc4ccccc4)cccc3c2C1 [Compound 1]"
label = "true"

[[record]]
compound = "Cc1cc(C#Cc2ccncc2)c2c(c1)c1c(n2C)CCN(C)C1 [Compound 17]"
label = "true"

[[record]]
compound = "Cc1cc(-c2ccncc2)c2c(c1)c1c(n2C)CCN(C)C1 [Compound 9]"
label = "false"


Determine whether this compound has inhibition at 0.1 µM no lower than 6%: C/C(=C\c1cc(C)cc2c3c(n(C)c12)CCN(C)C3)c1ccc(C)nc1 [Compound 15]
false

Determine whether this compound has inhibition at 0.1 µM no lower than 6%: CN1CCc2[nH]c3c(NCc4ccccc4)cccc3c2C1 [Compound 3]
true
